- tested.system: T1, recombinant purified FRα (ECL assay calibrator) (human, UniProt P15328 25-234)
- T1 construct: Calibrator of the ECL sandwich assays; also called FRα calibrator; FRα standard
- T1 sequence (P15328 25-234 limits assumed): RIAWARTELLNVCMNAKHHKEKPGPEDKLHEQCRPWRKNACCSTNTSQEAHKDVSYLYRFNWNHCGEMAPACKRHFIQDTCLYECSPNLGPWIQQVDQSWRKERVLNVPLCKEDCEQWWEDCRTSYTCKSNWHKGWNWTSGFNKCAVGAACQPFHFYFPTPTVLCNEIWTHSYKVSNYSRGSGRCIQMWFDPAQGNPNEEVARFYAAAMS
- assay.summary: ECL sandwich on FRα, signal to background; capture 1C6.E12.G8; binder = detection Ab
Recorded measurements of Average of S/B, one per entry

Past entries and their recorded results:
binder	Average of S/B
Monoclonal antibody 1A8.G11.E7 (antibody, mouse IgG1, V domains shown, Murine IgG1 kappa from hybridoma; also called ATCC PTA-123100) VH: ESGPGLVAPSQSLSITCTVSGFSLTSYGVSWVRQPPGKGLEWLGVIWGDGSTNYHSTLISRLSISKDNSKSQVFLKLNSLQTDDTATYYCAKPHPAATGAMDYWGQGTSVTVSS VL: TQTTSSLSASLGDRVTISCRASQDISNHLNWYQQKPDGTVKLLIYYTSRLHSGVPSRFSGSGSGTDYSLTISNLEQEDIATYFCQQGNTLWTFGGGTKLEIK	1
Monoclonal antibody 6A2.G7 (antibody, mouse IgG1, V domains shown, Murine IgG1 kappa from hybridoma; also called ATCC PTA-123093) VH: GADLVKPGASVKMSCKASGYTFSRYNMHWVKQTPGQGLEWIGTIYPGNGDTSYNEKFKGKATLTADKSSSIVYMQVSSLTSEASAVYYCARDYGSRYALDYWGQGTSVTVSS VL: SSLSASLGDRVTISCRASQDISNYLNWYQQKPDGTVKLLIYYTSRLHSGVPSRFSGSGSGTDYSLTISNLEQEDIATYFCQQGNTLPYTFGGGTKLEIK	3
Monoclonal antibody 1C6.E12.G8 (antibody, mouse IgG1, V domains shown, Murine IgG1 kappa from hybridoma; also called ATCC PTA-123091) VH: SGARELVKPGASVKLSCKTSGFTFNSSYITWLKQKPGQSLEWIAWIYAGNGGTTYNQKFTGKAQLTVDTSSSTAYMQFSSLTTEDSAIYYCASETYTNYWYFDVWGSGTTVTVSS VL: QSPASLSASVGETVTITCRASGNIHNYLAWYQQKQGKSPQLLVYNAKTLADGVPSRFSGSGSGTQYSLKINSLQPEDFGSYYCQHFWSTPYTFGGGTKLEIK	1

Lookup: Need Average of S/B of Monoclonal antibody 24H8.F3 (antibody, mouse IgG1, V domains shown, Murine IgG1 kappa from hybridoma; also called ATCC PTA-123097) VH: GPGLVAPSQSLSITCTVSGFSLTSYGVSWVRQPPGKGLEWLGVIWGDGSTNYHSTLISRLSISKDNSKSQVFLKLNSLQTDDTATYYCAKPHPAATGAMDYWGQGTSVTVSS VL: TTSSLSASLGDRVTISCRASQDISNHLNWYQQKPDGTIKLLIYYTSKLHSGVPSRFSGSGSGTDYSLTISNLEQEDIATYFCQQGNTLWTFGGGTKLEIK , thanks.
Found: 1

Lookup: Need Average of S/B of Monoclonal antibody 1D2.D8.G10 (antibody, mouse IgG1, V domains shown, Murine IgG1 kappa from hybridoma; also called 1D2.D8.G0; ATCC PTA-123098) VH: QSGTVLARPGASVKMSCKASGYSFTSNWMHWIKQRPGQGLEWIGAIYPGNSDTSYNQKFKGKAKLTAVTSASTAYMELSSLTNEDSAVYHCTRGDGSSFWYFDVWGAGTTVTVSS VL: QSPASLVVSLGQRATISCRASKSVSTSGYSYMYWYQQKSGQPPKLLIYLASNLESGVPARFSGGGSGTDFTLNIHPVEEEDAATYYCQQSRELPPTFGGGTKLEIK , thanks.
Found: 1

Lookup: Need Average of S/B of Monoclonal antibody 24H8.D3 (antibody, mouse IgG1, V domains shown, Biotin-conjugated when used as capture antibody in the ECL assay; also called ATCC PTA-123090) VH: QVQLKESGPGLVAPSQSLSITCTVSGFSLTSYGVSWVRQPPGKGLEWLGVIWGDGSTNYHSTLISRLSISKDNSKSQVFLKLNSLQTDDTATYYCAKPHPAATGAMDYWGQGTSVTVSS VL: DIQMTQTTSSLSASLGDRVTISCRASQDISNHLNWYQQKPDGTIKLLIYYTSKLHSGVPSRFSGSGSGTDYSLTISNLEQEDIATYFCQQGNTLWTFGGGTKLEIK , thanks.
Found: 1

Values from patent US20180148504A1
